Tested on: algae
Procedure details: Efficacy against algal growth on painted plaster surface (BBA MOAT 33)
Type: cell-based
Experimental setup: 0.5% in paint, painted plaster, leached 72 hours, 28 days after inoculation; mean of ratings 0-5
Measurement name: MEAN ALGAL GROWTH RATING 28 days
Please give only the number in your answer, with no unit.

O=C(Nc1ccc(F)cc1)c1cccc(Oc2cccc(C(F)(F)F)c2)n1 : 1.5

Then there is this compound:
Req: Look up and state reported MEAN ALGAL GROWTH RATING 28 days for Fc1ccc([C@@]2(Cn3cncn3)O[C@H]2c2ccccc2Cl)cc1
Resp: 2.5

* * *

Entries and their PF rating values follow.
Test system: Penicillium funiculosum
Procedure details: Intrinsic activity, microtitre plate method, PF
Assay type: cell-based
Design: key: rating 0 = no activity to 5 = biostatic, may be biocide
Experimental setup: 500 ppm a.i.
Experimental: The chemistries were tested for their activity against a range of organisms via a microtitre plate method. The test organisms were: • ML—Micrococcus luteus • SA—Staphylococcus aureus • EC—Escherichia coli • PA—Pseudomonas aeruginosa • CF—Citrobacter freundii • PM—Proteus mirabilis • CA—Candida albicans • SC—Saccharomyces cerevisiae • AN—Aspergillus niger • PF—Penicillium funiculosum • AA—Alternaria alternata […] Readings of 4 and possibly 3 were considered to be valid for biocidal applications.
Please give only the number in your answer, with no unit.

The examples below pair each entry with its known result.
CC(Cc1ccc(C(C)(C)C)cc1)CN1C[C@@H](C)O[C@@H](C)C1 (some centres unmarked) [Fenpropimorph] : 5
CC(Oc1ccc(Cl)cc1Cl)C(=O)O (centres unmarked) [Dichlorprop, 2,4-Dichlorophenoxy-propionic acid] : 5
Fc1ccc([C@@]2(Cn3cncn3)O[C@H]2c2ccccc2Cl)cc1 [Epoxiconazole] : 3

Req: Consider the compound O=C(O)COc1ccc(Cl)cc1Cl [2,4-D, 2,4-Dichlorphenoxy acetic acid] tested on Penicillium funiculosum; state its PF rating.
Resp: 3

Req: Consider the compound CCCCCCCCCCCCNC(=N)N [Dodine] tested on Penicillium funiculosum; state its PF rating.
Resp: 5

* * *

System: Bacteria
Procedure details: Intrinsic activity, microtitre plate method, mean score over bacteria
Type: cell-based, ML, SA, EC, PA, CF, PM
Experimental setup: 1000 ppm a.i.; performance against organisms/no of organisms; 0 to <3 poor, >3 inhibition, >4 biostasis, biocidal activity
Yes means recorded Bacteria Mean Score is 0.3 or above; No means it is below 0.3.

Solved entries (count: 3):
O=C(O)COc1ccc(Cl)cc1Cl : Yes
Fc1ccc([C@@]2(Cn3cncn3)O[C@H]2c2ccccc2Cl)cc1 : No
CC(Oc1ccc(Cl)cc1Cl)C(=O)O (centres unmarked) : Yes

Now take the following compound into account.
Req: Quick check: does CCCCCCCCCCCCNC(=N)N have Bacteria Mean Score greater than or equal to 0.3?
Resp: Yes

* * *

Entries and their Fungi Mean Score values follow.
Test system: Fungi
Procedure details: Intrinsic activity, microtitre plate method, mean score over fungi
Assay type: cell-based, CA, SC, AN, PF, AA
Experimental setup: 1000 ppm a.i.; performance against organisms/no of organisms; 0 to <3 poor, >3 inhibition, >4 biostasis, biocidal activity
Please give only the number in your answer, with no unit.

The examples below pair each entry with its known result.
CC(Oc1ccc(Cl)cc1Cl)C(=O)O (centres unmarked) [Dichlorprop, 2,4-Dichlorophenoxy-propionic acid] : 5.0
CCCCCCCCCCCCNC(=N)N [Dodine] : 5.0
Fc1ccc([C@@]2(Cn3cncn3)O[C@H]2c2ccccc2Cl)cc1 [Epoxiconazole] : 4.6
O=C(O)COc1ccc(Cl)cc1Cl [2,4-D, 2,4-Dichlorphenoxy acetic acid] : 4.6

Then there is this compound:
Req: Look up and state reported Fungi Mean Score for CC(Cc1ccc(C(C)(C)C)cc1)CN1C[C@@H](C)O[C@@H](C)C1 (some centres unmarked) [Fenpropimorph]
Resp: 5.0
